- TARGET OR SYSTEM: T1, human TMEM106B (human, UniProt Q9NUM4 2-274)
- T1 construct: full-length, transiently expressed on HEK293 cells, or natively expressed on HeLa, U251 and A549 cells (the cell is named under assay); also the source of the Pepscan peptides; also called huTMEM106B; huTMEM
- METHOD: FACS A549 1 ug/ml
READOUT TYPE: MFI

• TM-29 (antibody, V domains shown) VH: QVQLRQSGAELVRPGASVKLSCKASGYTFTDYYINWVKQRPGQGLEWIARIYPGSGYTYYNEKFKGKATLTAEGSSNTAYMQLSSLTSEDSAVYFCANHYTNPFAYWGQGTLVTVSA VL: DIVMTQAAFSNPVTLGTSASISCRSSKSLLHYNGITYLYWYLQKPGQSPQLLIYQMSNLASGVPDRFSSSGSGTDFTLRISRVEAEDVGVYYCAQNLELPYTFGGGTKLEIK = 2480 MFI
• TM-13 (antibody, V domains shown) VH: QVQLQQSGAELVKPGASVKMSCKASGYTFTTFPIEWMKQSHGKGLEWIGNFHPYNDDTKYNEKFKGKATLTVDKSSSTVYLDLSRLTSDDSAVYYCARYFYGGMDYWGQGTSVTVSS VL: DIQMTQSPASLSVSVGETVTITCRASENIYSSLGWYQQKQGESPQLLVFAATNLADGVPSRFSGSGSGTQYSLKINSLQSEDFGTYYCQHLWSIPWTFGGGTRLEIK = 1950 MFI
• TM-32 (antibody, V domains shown) VH: EVQLQQSGAELVRPGASVRLSCIASGFNIKDYYMYWVKQRPEQGLEWIGRIDPEDGDTEYVPKFQGKATMTADTSSNTAYLQLSSLTSEDIGVYYCTTRTWDLYYAVDNWGQGTSVTVSS VL: DVLMTQTPLSLPVSLGDQASISCRSSQNIVHSNGNTYLEWYLQKPGQSPKLLIDKVSNRFSGVPDRFSGSGSGTDFTLKISRVEAEDLGIYYCFQGSHVPFTFGSGTKLEIK = 3930 MFI
